Target: T1, Mouse latent myostatin (mouse, UniProt O08689 26-267; O08689 268-376)
T1 construct: Latent form = complex of two propeptides and the mature dimer
T1 sequence 1: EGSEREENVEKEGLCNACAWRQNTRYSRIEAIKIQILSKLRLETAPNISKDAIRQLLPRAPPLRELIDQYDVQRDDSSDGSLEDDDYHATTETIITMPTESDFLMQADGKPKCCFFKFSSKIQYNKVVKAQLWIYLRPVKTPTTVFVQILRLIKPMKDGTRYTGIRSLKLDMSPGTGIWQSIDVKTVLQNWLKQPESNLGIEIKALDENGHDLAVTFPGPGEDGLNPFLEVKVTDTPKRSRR
T1 sequence 2: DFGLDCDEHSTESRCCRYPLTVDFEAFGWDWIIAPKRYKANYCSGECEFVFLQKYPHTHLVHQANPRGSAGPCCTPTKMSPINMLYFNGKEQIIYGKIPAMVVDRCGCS
Assay: SPR 37C; KD pH 5.8 / KD pH 7.4
Each entry below carries its reported ratio of KD at pH 5.8/pH 7.4.
Quick one: just the number, no unit, thanks!

Req: For the binder shown here, MS_M103240H1246-SG1/M103202L1045-SK1 (antibody, human IgG1, kappa, V domains shown, also called MS1032LO25-SG1) VH: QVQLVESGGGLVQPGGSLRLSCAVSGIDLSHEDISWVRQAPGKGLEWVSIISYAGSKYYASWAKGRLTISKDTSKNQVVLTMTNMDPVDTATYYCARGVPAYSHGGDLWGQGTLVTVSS VL: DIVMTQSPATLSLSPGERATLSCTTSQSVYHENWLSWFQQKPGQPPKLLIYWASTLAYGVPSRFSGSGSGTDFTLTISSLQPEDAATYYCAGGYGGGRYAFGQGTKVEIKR , give the reported ratio of KD at pH 5.8/pH 7.4.
Resp: 38

Req: Ok, now MS_M103205H1046-SG1/M103202L889-SK1 (antibody, human IgG1, kappa, V domains shown, also called MS1032LO10-SG1) VH: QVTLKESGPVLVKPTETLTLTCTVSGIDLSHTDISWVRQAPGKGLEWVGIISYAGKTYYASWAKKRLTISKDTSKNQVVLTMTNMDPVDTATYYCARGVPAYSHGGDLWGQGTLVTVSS VL: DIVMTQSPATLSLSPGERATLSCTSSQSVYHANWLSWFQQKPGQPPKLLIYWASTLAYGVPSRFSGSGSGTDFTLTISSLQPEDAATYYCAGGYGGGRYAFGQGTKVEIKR
Resp: 35
